Measured IC50, listed per entry.
- Test system: Plasmodium falciparum
- method-notes: Antiplasmodial activity against chloroquine-resistant Plasmodium falciparum K1 after 48 hrs using Hema 3 staining by microscopic analysis
- Assay type: functional, organism-based
- stated-conditions: K1, 48 h
// return numeric value only (unit: nM, not printed)

Consider the worked cases shown below.
Clc1ccc2c(Nc3cccc(C4=NCCO4)c3)ccnc2c1	895
O=C1C(O)=C([C@H]2CC[C@H](c3ccc(Cl)cc3)CC2)C(=O)c2ccccc21 [ATOVAQUONE]	17.7
CC1(C)COC(c2cccc(Nc3ccnc4cc(Cl)ccc34)c2)=N1	711

I'd like to know its IC50. The compound in question is Clc1ccc2c(Nc3ccc(C4=NCCO4)cc3)ccnc2c1 846
